The values you see were collected from patent US20230061736A1.

# Lookup of reported Exposure unbound (plasma) keyed by entry
- test-details: In vivo plasma levels in mice after oral gavage
- Set-up: species or system C57BL/6J mice
- condition-details: mouse, 30 mpk oral gavage, 7 h post-dose; total exposure x free fraction from plasma protein binding

molecule | Exposure unbound (plasma)
O=C(NC[C@H](O)[C@@H](O)[C@H](O)[C@H](O)CO)C1CN(C(=O)Cc2ccc(OCCCC3CCN(c4ncc(Cl)cn4)CC3)cc2F)C1 (racemic) | 1.1 nM
O=C(NC(CO)(CO)CO)C1CN(C(=O)Cc2ccc(OCCCC3CCN(c4ncc(Cl)cn4)CC3)cc2F)C1 | 0.7 nM
O=C(Cc1ccc(OCCCC2CCN(c3ncc(Cl)cn3)CC2)cc1F)N1CC(CNC(CO)(CO)CO)C1 | 0.7 nM
O=C(Cc1ccc(OCC[C@@H]2C[C@@H]2C2CCN(c3ncc(Cl)cn3)CC2)cc1F)N1CC(CNC[C@H](O)[C@@H](O)[C@H](O)[C@H](O)CO)C1 | 0.1 nM
O=C(CC1CN(C(=O)Cc2ccc(OCCCC3CCN(c4ncc(Cl)cn4)CC3)cc2F)C1)NC[C@H](O)[C@@H](O)[C@H](O)[C@H](O)CO (racemic) | 0.2 nM
